- Test system: 349418-098-R-PDC complex spheroid viability;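 further: spheroids exposed to agents for seven days before readout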
- measurement.description: Anticancer human tumor 349418-098-R-PDC patient-derived lung adenocarcinoma cell line growth inhibition; active means viability on the fitted dose curve at most 10% of control; inactive means the rest
- applied.conditions: second compound 10 µM; first compound 0.000949 µM
Labels: yes for active, no for inactive

| compound | system.tested | class.name |
| --- | --- | --- |
| CCc1c2c(nc3ccc(O)cc13)-c1cc3c(c(=O)n1C2)COC(=O)[C@]3(O)CC + NC1CC1c1ccc(-c2cccc(O)c2)cc1 | 349418-098-R-PDC complex spheroid viability | yes |
| Nc1ncn(C2CC(O)C(CO)S2)c(=O)n1 (stereo unspecified) + NC1CC1c1ccc(-c2cccc(O)c2)cc1 | 349418-098-R-PDC complex spheroid viability | no |
| Nc1ccn(C2OC(CO)C(O)C2(F)F)c(=O)n1 (stereo unspecified) + NC1CC1c1ccc(-c2cccc(O)c2)cc1 | 349418-098-R-PDC complex spheroid viability | no |
| Nc1ncn(C2CC(O)C(CO)S2)c(=O)n1 (stereo unspecified) + NC1CCC(NC2CC2c2ccccc2)CC1 | 349418-098-R-PDC complex spheroid viability | no |
| CCc1c2c(nc3ccc(O)cc13)-c1cc3c(c(=O)n1C2)COC(=O)[C@]3(O)CC + NC1CCC(NC2CC2c2ccccc2)CC1 | 349418-098-R-PDC complex spheroid viability | yes |
| Nc1ccn(C2OC(CO)C(O)C2(F)F)c(=O)n1 (stereo unspecified) + NC1CCC(NC2CC2c2ccccc2)CC1 | 349418-098-R-PDC complex spheroid viability | yes |
